# PROTOCOL_DESCRIPTION: solvent given as SMILES
# DETAILS: in O
ATTRIBUTE_MEASURED: emission maximum (nm)

Quick one: emission maximum for `CCN(CC)c1ccc2c(-c3ccc(S(=O)(=O)[O-])cc3S(=O)(=O)[O-])c3ccc(=[N+](CC)CC)cc-3oc2c1` ? 588

Quick one: emission maximum for `CN(C)c1ccc2c(-c3ccc(N)cc3C(=O)[O-])c3ccc(=[N+](C)C)cc-3oc2c1` ? 572

Quick one: emission maximum for `Cc1cn(C)c(=O)nc1-n1cncn1` ? 389

Quick one: emission maximum for `Cn1ccc(-n2cncn2)nc1=O` ? 366

Quick one: emission maximum for `Cc1c(OCC(=O)O)cc2c3c([nH]c2c1C)C(=O)CCC3` ? 507.23

---

# PROTOCOL_DESCRIPTION: solvent given as SMILES
# DETAILS: in ClCCl
ATTRIBUTE_MEASURED: emission maximum (nm)

Quick one: emission maximum for `CCCc1ccc(C#Cc2cc(C#Cc3ccc(N(C)C)cc3)c3ccc4c(C#Cc5ccc(N(C)C)cc5)cc(C#Cc5ccc(CCC)cc5)c5ccc2c3c54)cc1` ? 591

Quick one: emission maximum for `COc1ccc(/C=C/C2=CC(c3ccccc3)=[O+][B-](F)(F)O2)cc1` ? 506

Quick one: emission maximum for `O=C(O)c1c2ccccc2nc2ccccc12` ? 422

Quick one: emission maximum for `C(#Cc1c2ccccc2c(-c2ccccc2)c2cc3ccccc3cc12)c1ccccc1` ? 541

Quick one: emission maximum for `CCN(CC)c1ccc2c(c1)oc(=O)c1cc3c(-c4ccccc4)nn(C)c3nc12` ? 506

---

Measured emission maximum values are reported for all entries that follow.
# PROTOCOL_DESCRIPTION: solvent given as SMILES
# DETAILS: in CN(C)C=O
Give just the number in nm; leave the unit off.

Some molecules with known emission maximum results, for comparison:
Quick one: emission maximum for `COc1ccc2c(c1)[nH]c1c3[nH]c4cc(OC)ccc4c3c3nsnc3c21` ? 544

Quick one: emission maximum for `CCOc1cc2c(cc1/C=C/C1=CC(=C(C#N)C#N)CC(C)(C)C1)c1ccccc1n2CC` ? 635

Now for a further molecule.
Quick one: emission maximum for `F[B-]1(F)n2cccc2C(c2c3ccccc3cc3ccccc23)=C2C=CC=[N+]21` ? 524

---

# PROTOCOL_DESCRIPTION: solvent given as SMILES
# DETAILS: in CCOC(C)=O
ATTRIBUTE_MEASURED: emission maximum (nm)

Some compounds with known emission maximum results, for comparison:
Quick one: emission maximum for `CC(C)(C)c1ccc(-c2nc3c4ccc(-c5ccc6ccc7cccc8ccc5c6c78)cc4c4cc(-c5ccc6ccc7cccc8ccc5c6c78)ccc4c3n2-c2ccc(C(C)(C)C)cc2)cc1` ? 440

Quick one: emission maximum for `Nc1ccc2c(C(F)(F)F)cc(=O)oc2c1` ? 456

Quick one: emission maximum for `CSc1cc(-c2cc3cc4c5c(c3oc2=O)CCCN5CCC4)oc(=O)c1C#N` ? 575

Quick one: emission maximum for `c1ccc(N2c3ccccc3Sc3cc(-c4cccc5nc6ccccc6cc45)ccc32)cc1` ? 474

Quick one: emission maximum for `CC(C)CCCCN1CCc2c1ccc1c3c(ccc21)C(=O)CCC3` ? 467

P = C[Si](C)(C)c1cc2c(cc3ccc4cccc5ccc2c3c45)[nH]1
Q = Cc1ccc(C2=C3C=C(I)C(I)=[N+]3[B-](F)(F)n3c2cc(I)c3I)cc1
// compare measured emission maximum, left P , right Q , return larger # reply format: chosen label Q
(Q: 591.5 nm, P: 406 nm)
